experimental protocol: Binding affinity to 5'-Biotinylated-AGTGAGAGTGAGAGAGAGAGTGAGAGTGAGAGTGA ssDNA (unknown origin) by SPR analysis
pKd: −log10 of the molar value.
readout kind: pKd

- chemical structure: "CN(C)CCCn1c(=O)c2ccc3c(=O)n(CCCN(C)C)c(=O)c4c5[nH]c6ccccc6[nH]c5c(c1=O)c2c34.Cl.Cl"
  readout kind: "pKd"
  recorded value: 6.71

====

experimental protocol: Stabilization of 5'-FAM/3'-TAMRA labelled CTATAGCGCGCTATAG dsDNA (unknown origin) assessed as change in melting temperature t1/2 at 1 uM after 16 hrs in presence of 100 mM K+ by FRET assay
List of ΔTm values.

- chemical structure: "CN(C)CCN1C(=O)c2ccc3c4c(c(NCCc5ccc(O)c(CN(C)C)c5)cc(c24)C1=O)C(=O)N(CCN(C)C)C3=O"
  censor symbol: "<"
  ΔTm (°C): 0.1
- chemical structure: "CN(C)CCCN1C(=O)c2ccc3c4c(c5[nH]c(=O)c(=O)[nH]c5c(c24)C1=O)C(=O)N(CCCN(C)C)C3=O"
  censor symbol: "<"
  ΔTm (°C): 0.1
- chemical structure: "CN1CCN(c2cc3c4c(c(NCCO)cc5c4c2C(=O)N(CCO)C5=O)C(=O)N(CCO)C3=O)CC1"
  censor symbol: "<"
  ΔTm (°C): 0.1
- chemical structure: "CN(C)CCN1C(=O)c2ccc3c4c(c(C#Cc5ccc(CN(C)C)c(O)c5)cc(c24)C1=O)C(=O)N(CCN(C)C)C3=O"
  censor symbol: "<"
  ΔTm (°C): 0.1
- chemical structure: "CN(C)CCCN1C(=O)c2ccc3c4c(c(NCCCCCCCNc5cc6c7c(ccc8c7c5C(=O)N(CCCN(C)C)C8=O)C(=O)N(CCCN(C)C)C6=O)cc(c24)C1=O)C(=O)N(CCCN(C)C)C3=O"
  censor symbol: "="
  ΔTm (°C): 1
- chemical structure: "CN(C)CCCn1c(=O)c2ccc3c(=O)n(CCCN(C)C)c(=O)c4c5[nH]c6ccccc6[nH]c5c(c1=O)c2c34.Cl.Cl"
  censor symbol: "="
  ΔTm (°C): 1
- chemical structure: "CN(C)CCN1C(=O)c2ccc3c4c(c(NCC(=O)Nc5ccc(O)c(CO)c5)cc(c24)C1=O)C(=O)N(CCN(C)C)C3=O"
  censor symbol: "<"
  ΔTm (°C): 0.1
- chemical structure: "CN(C)CCCNc1cc2c3c(ccc4c3c1C(=O)N(CCCN(C)C)C4=O)C(=O)N(CCCN(C)C)C2=O"
  censor symbol: "="
  ΔTm (°C): 5.1
- chemical structure: "CN(C)CCCN1C(=O)c2ccc3c4c(c(NCCCCNc5cc6c7c(ccc8c7c5C(=O)N(CCCN(C)C)C8=O)C(=O)N(CCCN(C)C)C6=O)cc(c24)C1=O)C(=O)N(CCCN(C)C)C3=O"
  censor symbol: "="
  ΔTm (°C): 1.9
